Target: CYP2D6 (Homo sapiens, UniProt P10635)
Construct: purchased Corning Gentest
Sequence (P10635 whole entry): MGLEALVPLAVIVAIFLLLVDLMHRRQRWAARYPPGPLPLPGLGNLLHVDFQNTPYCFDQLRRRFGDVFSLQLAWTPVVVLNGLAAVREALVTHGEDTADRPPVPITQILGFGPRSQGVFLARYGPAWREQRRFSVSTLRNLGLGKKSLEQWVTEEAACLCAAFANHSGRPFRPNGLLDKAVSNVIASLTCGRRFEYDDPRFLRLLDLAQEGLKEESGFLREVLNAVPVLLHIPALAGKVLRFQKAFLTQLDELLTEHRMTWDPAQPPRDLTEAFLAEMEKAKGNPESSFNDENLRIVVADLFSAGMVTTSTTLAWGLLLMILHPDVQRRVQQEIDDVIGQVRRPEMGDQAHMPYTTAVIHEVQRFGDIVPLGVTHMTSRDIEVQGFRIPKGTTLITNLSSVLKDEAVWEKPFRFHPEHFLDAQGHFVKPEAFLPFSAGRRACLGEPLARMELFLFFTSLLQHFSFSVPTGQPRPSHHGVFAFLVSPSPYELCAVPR
Experiment: Metabolic stability in Human CYP2D6 Supersomes
Type: in vitro ADME
Settings: human, recombinant human CYP2D6 Supersomes, pH 7.4, Table 4a; 5 pmol/mL CYP2D6 supersomes, 0.25 μM test compound, 2 mM NADPH, 37° C., parent remaining by LC-MS/MS; read-out: t1/2 (minutes) Experiment 1
observable: half-life at 0.25 μM (min)
State the answer as a number, implicitly in min.

Query: I would be grateful if you could share the reported half-life at 0.25 μM for CCCCCCCC(=O)N[C@H](CN1CCCC1)[C@H](O)c1ccc2c(c1)OCCO2 [Eliglustat (D0), reference compound] .
Response: 6.6

The measurements presented in this section are drawn from patent US9783528B2.
